test: growth inhibition of WT strain, primary screen, mitochondrial fusion inhibitor project, WT and mutant strains, chemical genetic (AID 1362); details: mitochondrial fusion phenotypic screen, WT strain, growth inhibition; at 10 µM; stronger effect = higher value
The whole screen tested about 190,000 compounds, of which about 4,000 (2.1%) were called active. The entries come from a sample that favours actives as a whole.
endpoint_name: inhibition

Item: CCCOc1ccc(C(=O)C(CCC(CNCC)C(=O)c2ccc(OCCC)cc2)CNCC)cc1 (stereo not drawn) | inhibition: 72.9% (active)

Consider O=C(NCc1ccccc1Cl)C1CCCO1 (stereo not drawn) . Its measured inhibition is -11.3% (inactive)

For the next question, use this compound.
Kindly note the recorded inhibition for CCc1ccccc1NC(=O)/C(=C/c1ccccc1)c1ccccc1 , which is 64.8% (active)

###

assay: growth inhibition of WT strain, primary screen, mitochondrial fusion inhibitor project, WT and mutant strains, chemical genetic (AID 1362); details: mitochondrial fusion phenotypic screen, mutant strain inhibition; at 10 µM
About 4,000 (2.1%) of roughly 190,000 compounds were called active. For the sample, actives were picked, then their nearest neighbours and some compounds at random.
endpoint_name: inhibition (%)
All answers are understood in %, so give the number only.

Worked examples, 2 compounds total:
# compound Cc1ccc2c(c1)C1CN(C)CCC1N2C(=S)Nc1ccc(OC(F)F)cc1 (stereo not drawn) ; its inhibition = 8.65

Record CCCS(=O)(=O)N1CCC(CCOc2ccccc2)(C(=O)OCC)CC1 , field inhibition: -7.89

Next compound, inhibition to be filled in.
// field: inhibition; key: Cn1nnnc1-c1cc(Cl)cc(Cl)c1 ; value = 21.3

Hello, the source for this data is PubChem BioAssay AID1362, in case you need it.
